The origin of these recorded values is ChEMBL document CHEMBL1152085.

System: Staphylococcus aureus
Assay: Tested in vitro for minimum inhibitory concentration to produce antibacterial activity against Staphylococcus aureus CMX 553
Type: functional
measured_metric: MIC (µg/mL)
API: value field is a number in µg/mL; no unit string.

Answered examples (8):
CC[C@H]1OC(=O)[C@H](C)C[C@H](C)[C@@H](O[C@@H]2O[C@H](C)C[C@H](N(C)C)[C@H]2O)[C@](C)(OC)C[C@@H](C)C2=NCCN3C(=O)O[C@@]1(C)[C@H]3[C@H]2C
6.2
CC[C@H]1OC(=O)[C@H](C)C(=O)[C@H](C)[C@@H](O[C@@H]2O[C@H](C)C[C@H](N(C)C)[C@H]2O)[C@](C)(OC)C[C@@H](C)C(=O)[C@H](C)[C@@H](O)[C@]1(C)O
0.2
CC[C@H]1OC(=O)[C@H](C)C[C@H](C)[C@@H](O[C@@H]2O[C@H](C)C[C@H](N(C)C)[C@H]2O)[C@](C)(OC)C[C@@H](C)/C(=N\O)[C@H](C)[C@@H](O)[C@]1(C)O
12.5
CC[C@H]1OC(=O)[C@H](C)C[C@H](C)[C@@H](O[C@@H]2O[C@H](C)C[C@H](N(C)C)[C@H]2O)[C@](C)(OC)C[C@@H](C)C(=O)[C@H](C)[C@H]2N(CCCCc3ccccc3)C(=O)O[C@]12C
1.56
CCO/N=C1\[C@H](C)C[C@@](C)(OC)[C@H](O[C@@H]2O[C@H](C)C[C@H](N(C)C)[C@H]2O)[C@@H](C)C[C@@H](C)C(=O)O[C@H](CC)[C@@](C)(O)[C@H](O)[C@H]1C
50
CC[C@H]1OC(=O)[C@H](C)[C@@H](O[C@H]2C[C@@](C)(OC)[C@@H](O)[C@H](C)O2)[C@H](C)[C@@H](O[C@@H]2O[C@H](C)C[C@H](N(C)C)[C@H]2O)[C@](C)(OC)C[C@@H](C)C(=O)[C@H](C)[C@@H](O)[C@]1(C)O
0.12
CC[C@H]1OC(=O)[C@H](C)[C@@H](OC(=S)SC)[C@H](C)[C@@H](O[C@@H]2O[C@H](C)C[C@H](N(C)C)[C@H]2O)[C@](C)(OC)C[C@@H](C)C(=O)[C@H](C)[C@@H](O)[C@]1(C)O
25
CC[C@H]1OC(=O)[C@H](C)C[C@H](C)[C@@H](O[C@@H]2O[C@H](C)C[C@H](N(C)C)[C@H]2O)[C@](C)(OC)C[C@@H](C)/C(=N\OC)[C@H](C)[C@@H](O)[C@]1(C)O
100

For reference, reported MIC for CC[C@H]1OC(=O)[C@H](C)C[C@H](C)[C@@H](O[C@@H]2O[C@H](C)C[C@H](N(C)C)[C@H]2O)[C@](C)(OC)C[C@@H](C)C(=O)[C@H](C)[C@@H](O)[C@]1(C)O stands at 25

For reference, reported MIC for CC[C@H]1OC(=O)[C@H](C)C[C@H](C)[C@@H](O[C@@H]2O[C@H](C)C[C@H](N(C)C)[C@H]2O)[C@](C)(OC)C[C@@H](C)C(=O)[C@H](C)[C@H]2OC(=O)O[C@@]21C stands at 3.1

For reference, reported MIC for CC[C@H]1OC(=O)[C@H](C)C[C@H](C)[C@@H](O[C@@H]2O[C@H](C)C[C@H](N(C)C)[C@H]2O)[C@](C)(OC)C[C@@H](C)C(=O)[C@H](C)[C@H]2N(CCc3ccc(Oc4ccccc4)cc3)C(=O)O[C@]12C stands at 6.2
